Numbers sourced from PubChem BioAssay (NCI).

- Procedure summary: NCI Yeast Anticancer Drug Screen. Data for the mlh1 rad18 strain (AID 175)
- Condition notes: S. cerevisiae mlh1 rad18 strain growth inhibition; at 50.0 µM; hits give high values
- Procedure: Growth inhibition of yeast strains with defined genetic alterations is measured as a screen for potential anti-cancer activity. Selected strains with alterations in DNA damage repair or cell cycle control were exposed to compounds and growth inhibition was measured relative to vehicle treated controls. The strain used in this assay is mlh1 rad18
About 79,000 compounds went through this panel and 15% of them were active in at least one assay; those are over-represented in the sample as a whole.
growth inhibition by entry:
Write the answer as a number in %, unit excluded.

Use these answered entries as a reference point.
Query: Record request: growth inhibition value, item "COc1cc(OC)cc(OCc2nc3cc(C(F)(F)F)ccc3nc2-c2ccccc2)c1"
Response: -53.8

Query: Follow-up entry: "N#Cc1c2c(c(N3CCCCC3)n3c1nc1ccccc13)CCC2"
Response: 19.9

Query: Follow-up entry: "Cc1nc(N)c(N=O)c(=O)[nH]1"
Response: 7.35

Query: Follow-up entry: "CCN(CC)c1c(C)c(-c2ccccc2)oc(=O)c1Cl"
Response: 6.95

Query: Follow-up entry: "[Cl][Sn]1([Cl])[CH2]CCCCCCCCCC[CH2][Sn]([Cl])([Cl])[CH2]CCCCCCCCCC[CH2]1"
Response: -25.5

Query: Follow-up entry: "Cc1ccc2c(c1)-c1nc3nnnn3nc1C(C)(C)O2"
Response: 26.8

Query: Follow-up entry: Cc1ccc(NC(=O)CC2SC(=Nc3cccc(Cl)c3C)NC2=O)cc1 (configuration not stated)
Response: 11

Query: Follow-up entry: "Cc1[nH]c(=O)[nH]c(=O)c1NC=O"
Response: -27.1

Query: Follow-up entry: "NC(=O)c1cc(Cl)ccc1O"
Response: 11.6

Query: Follow-up entry: "CC(C)([NH-])C[NH-].[Cl][Pt+2][Cl]"
Response: 5.1

More entries:
Query: Record request: growth inhibition value, item c1ccc(CNC2CC3CCC2C3)cc1 (configuration not stated)
Response: -1.3

Query: Follow-up entry: "O=C(OCc1ccco1)c1ccc([N+](=O)[O-])cc1"
Response: -12.8
